Tested on: SK-MES-1
Assay: relative viability (nuclei count vs DMSO), 5 days (fraction); higher = more cells survive
Conditions: first compound 6.325 µM
I'd appreciate it if you marked entries T when relative viability is lower than 0.3 and F when it is not.

Some solved cases for reference:
Cc1csc(=NC2CCCCC2)n1/N=C/c1ccc(O)c(O)c1O [MIM1] + O=C(CCCCCCC(=O)Nc1ccccc1)NO [Vorinostat] (partner 1 µM)
F
Cc1csc(=NC2CCCCC2)n1/N=C/c1ccc(O)c(O)c1O [MIM1] + Nc1ncn([C@H]2C[C@H](O)[C@@H](CO)O2)c(=O)n1 [Decitabine] (partner 2 µM)
T
Cc1csc(=NC2CCCCC2)n1/N=C/c1ccc(O)c(O)c1O [MIM1] + C[C@]1(O)C[C@@H](c2nc(-c3ccc4ccc(-c5ccccc5)nc4c3)c3c(N)nccn32)C1 [Linsitinib] (partner 1 µM)
F
Cc1csc(=NC2CCCCC2)n1/N=C/c1ccc(O)c(O)c1O [MIM1] + Nc1nc2[nH]cc(CCc3ccc(C(=O)N[C@@H](CCC(=O)O)C(=O)O)cc3)c2c(=O)[nH]1 [Pemetrexed] (partner 0.2 µM)
F
Cc1csc(=NC2CCCCC2)n1/N=C/c1ccc(O)c(O)c1O [MIM1] + CS(=O)(=O)N1CCN(Cc2cc3nc(-c4cccc5[nH]ncc45)nc(N4CCOCC4)c3s2)CC1 [Pictilisib] (partner 1 µM)
T

Please turn your attention to the following entry.
Here's an entry: Cc1csc(=NC2CCCCC2)n1/N=C/c1ccc(O)c(O)c1O [MIM1] + Cc1nc(Nc2ncc(C(=O)Nc3c(C)cccc3Cl)s2)cc(N2CCN(CCO)CC2)n1 [Dasatinib] (partner 0.075 µM) . Is its relative viability below 0.3? T
